Target: α4β7 (Homo sapiens, UniProt P13612+P26010)
Construct: endogenous in cells; host or cells: RPMI 8866 cells
Sequence (P13612 34-1032): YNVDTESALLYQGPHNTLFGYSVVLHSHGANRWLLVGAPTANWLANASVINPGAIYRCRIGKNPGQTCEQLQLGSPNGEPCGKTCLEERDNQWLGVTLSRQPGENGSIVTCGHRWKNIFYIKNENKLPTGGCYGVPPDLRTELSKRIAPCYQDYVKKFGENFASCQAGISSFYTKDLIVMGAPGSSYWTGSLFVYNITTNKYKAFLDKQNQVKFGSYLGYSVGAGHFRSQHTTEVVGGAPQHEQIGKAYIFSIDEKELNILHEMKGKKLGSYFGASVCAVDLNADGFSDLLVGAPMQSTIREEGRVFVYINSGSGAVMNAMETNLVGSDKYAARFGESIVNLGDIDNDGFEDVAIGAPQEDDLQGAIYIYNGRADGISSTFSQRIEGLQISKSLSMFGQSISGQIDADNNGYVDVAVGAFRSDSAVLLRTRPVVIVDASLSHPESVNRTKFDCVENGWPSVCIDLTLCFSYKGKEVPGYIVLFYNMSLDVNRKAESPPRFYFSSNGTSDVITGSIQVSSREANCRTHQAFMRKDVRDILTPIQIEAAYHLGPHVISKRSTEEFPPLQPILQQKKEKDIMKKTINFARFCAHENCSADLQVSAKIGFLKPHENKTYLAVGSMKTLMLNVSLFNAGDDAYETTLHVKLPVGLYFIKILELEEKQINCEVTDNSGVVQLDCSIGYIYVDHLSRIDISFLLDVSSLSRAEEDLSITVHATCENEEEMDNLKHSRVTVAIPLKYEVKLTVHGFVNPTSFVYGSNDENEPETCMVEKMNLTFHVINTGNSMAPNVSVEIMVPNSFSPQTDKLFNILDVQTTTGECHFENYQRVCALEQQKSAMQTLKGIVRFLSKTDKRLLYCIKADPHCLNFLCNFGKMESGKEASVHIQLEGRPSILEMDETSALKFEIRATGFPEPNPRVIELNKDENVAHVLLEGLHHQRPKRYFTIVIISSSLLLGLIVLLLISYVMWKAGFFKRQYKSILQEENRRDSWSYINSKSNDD
Sequence (P26010 20-798): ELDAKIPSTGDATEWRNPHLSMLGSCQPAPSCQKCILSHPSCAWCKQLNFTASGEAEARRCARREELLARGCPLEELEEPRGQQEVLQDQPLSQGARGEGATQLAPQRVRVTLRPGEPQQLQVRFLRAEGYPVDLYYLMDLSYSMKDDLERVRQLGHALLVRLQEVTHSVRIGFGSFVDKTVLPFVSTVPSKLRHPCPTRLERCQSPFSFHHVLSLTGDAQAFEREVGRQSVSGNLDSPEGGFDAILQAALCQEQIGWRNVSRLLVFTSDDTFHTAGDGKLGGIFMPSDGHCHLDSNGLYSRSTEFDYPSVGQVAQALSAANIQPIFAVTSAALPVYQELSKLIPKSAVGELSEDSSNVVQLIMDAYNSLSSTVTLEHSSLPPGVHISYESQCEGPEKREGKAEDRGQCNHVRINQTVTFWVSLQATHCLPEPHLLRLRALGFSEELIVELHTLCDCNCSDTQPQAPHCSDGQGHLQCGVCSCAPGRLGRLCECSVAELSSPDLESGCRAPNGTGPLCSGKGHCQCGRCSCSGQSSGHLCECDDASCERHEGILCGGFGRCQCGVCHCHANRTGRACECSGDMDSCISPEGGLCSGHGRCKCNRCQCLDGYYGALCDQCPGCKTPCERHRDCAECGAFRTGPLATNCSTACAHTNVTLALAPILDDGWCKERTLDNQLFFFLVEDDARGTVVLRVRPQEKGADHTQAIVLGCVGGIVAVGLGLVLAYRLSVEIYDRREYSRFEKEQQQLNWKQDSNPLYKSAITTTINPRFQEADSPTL
Experiment: Cell adhesion assay, RPMI8866 cells on MAdCAM coated plates (Example 7)
Type: cell-based
Settings: RPMI8866 cells adhering to recombinant human MAdCAM; Table 4 comparative compounds; read-out: CA Assay (Example 7)
pIC50: −log10 of the molar value.
VALUE TYPE: pIC50

Please review the following examples before continuing.
MOLECULE	pIC50
Cc1ccccc1-c1cc([C@H](CC(=O)O)NC(=O)C(CC(C)C)n2ccccc2=O)ccc1C#N (stereo partly drawn)	< 6.30
Cc1cccc(C)c1-c1cccc([C@H](CC(=O)O)NC(=O)[C@H](CC(C)C)n2cc(CN3CC[C@@H](F)C3)ccc2=O)c1	7.30 to 8.00

Proceeding to the next molecule to report its pIC50.
**Q:** State its pIC50 for this molecule: Cc1cccc(C)c1-c1cccc([C@H](CC(=O)O)NC(=O)[C@H](CC(C)C)n2cc(CN3CC(F)C3)ccc2=O)c1 [drawing 572]
**A:** < 7.30
